Where do these numbers come from? They come from paper PMC6812009.

Target: Aurora A (active) (Homo sapiens)
Construct: Bacterially expressed full-length His-Aurora A was used to determine the IC50 value for CoA; made in house; host or cells: E. coli BL21 (DE3) pLysS
Sequence (O14965 1-403): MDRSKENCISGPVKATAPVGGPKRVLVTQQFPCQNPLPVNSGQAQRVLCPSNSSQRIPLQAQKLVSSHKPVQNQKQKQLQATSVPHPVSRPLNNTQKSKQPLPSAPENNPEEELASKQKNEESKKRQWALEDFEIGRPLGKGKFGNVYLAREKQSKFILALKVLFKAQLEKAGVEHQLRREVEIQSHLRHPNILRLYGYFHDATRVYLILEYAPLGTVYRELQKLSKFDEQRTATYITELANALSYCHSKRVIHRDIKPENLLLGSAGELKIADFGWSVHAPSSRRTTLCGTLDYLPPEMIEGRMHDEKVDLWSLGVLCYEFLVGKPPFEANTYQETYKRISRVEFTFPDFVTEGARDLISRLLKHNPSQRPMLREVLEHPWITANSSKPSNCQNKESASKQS
Assay: In vitro Aurora A kinase assay (γ33P-ATP incorporation into myelin basic protein)
Format: biochemical
Details: 5 μM ATP, absence of DTT; read-out: IC50, Aurora A kinase activity
Readout name: IC50 (µM)
Answers are plain numbers, in µM.

What IC50 value was documented for this compound, CCNC(=O)CCNC(=O)[C@H](O)C(C)(C)COP(=O)(O)OP(=O)(O)OC[C@H]1O[C@@H](n2cnc3c(N)ncnc32)[C@H](O)[C@@H]1OP(=O)(O)O [desulfo-CoA] ?
160
